Tested on: SARS-CoV-2
Assay: Antiviral effect in iPSC-derived pneumocyte system
Assay type: cell-based
Settings: iPSC pneumocytes SARS-CoV-2 antiviral effect; maximum measured response of dose series
REPORTED ENDPOINT: perc_max_measured (%)
Answers are plain numbers, in %.

These recorded examples may help you get a feel for the data.
1) CC(C)C(Nc1ncnc2[nH]c(C(=O)NC3CCN(C)C3)cc12)c1ccc2c(c1)S(=O)(=O)CCC2 (stereo not shown) | 101.646
2) CC(C)[C@@H](Nc1ncnc2[nH]c(-c3cnn(CC(N)=O)c3)cc12)c1ccc2c(c1)OCCO2 | 96.462
3) CC(C)[C@@H](Nc1ncnc2[nH]c(-c3cnn(CC(N)=O)c3)cc12)c1ccc2c(n1)OCCO2 (single isomer, unassigned) | 94.962
4) Cn1ncc(-c2cc3c(N[C@@H](c4ccc5c(c4)OCCO5)C(C)(C)C)ncnc3[nH]2)c1C#N (racemic) | 131.986
5) CC(C)[C@@H](Nc1ncnc2[nH]c(-c3cnn(C)n3)cc12)c1ccc2c(c1)OCCO2 | 157.709
6) CNCc1cc(-c2cc3c(N[C@@H](c4ccc5c(c4)S(=O)(=O)NCC5)C(C)C)ncnc3[nH]2)co1 | 102.14

Continue with the compound presented below.
Simply: CNC(=O)c1cc2c(N[C@@H](c3ccc4c(c3)OCCO4)C(C)C)ncnc2[nH]1 , SARS-CoV-2, perc_max_measured = 153.61
